Target: MDM2 (Homo sapiens)
Sequence (Q00987 whole entry): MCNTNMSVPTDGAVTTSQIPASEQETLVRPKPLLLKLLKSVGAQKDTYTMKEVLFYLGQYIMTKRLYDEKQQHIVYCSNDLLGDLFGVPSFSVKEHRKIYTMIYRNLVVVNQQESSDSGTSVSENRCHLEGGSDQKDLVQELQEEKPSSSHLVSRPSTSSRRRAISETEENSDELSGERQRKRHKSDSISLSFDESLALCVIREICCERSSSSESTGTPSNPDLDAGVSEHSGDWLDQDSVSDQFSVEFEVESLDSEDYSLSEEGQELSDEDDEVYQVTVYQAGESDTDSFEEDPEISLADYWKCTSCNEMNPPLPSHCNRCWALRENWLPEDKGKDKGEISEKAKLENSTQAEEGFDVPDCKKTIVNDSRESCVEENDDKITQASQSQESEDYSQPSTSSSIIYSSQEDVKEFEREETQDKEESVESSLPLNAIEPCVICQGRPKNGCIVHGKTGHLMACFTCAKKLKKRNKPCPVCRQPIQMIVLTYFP
Assay: MDM2 binding screen of Libraries 3 and 4: displacement of fluorescent probe F-M8 at 750 nM macrocycle
Conditions: Panel c, Library 4: best nine scaffolds and 15 additional carboxylic acids; displacement of fluorescent probe
metric: fraction of fluorescent probe displaced
Give only the figure.

compound="CCOc1ccc(/C=C/C(=O)NC[C@@H]2NC(=O)[C@H]3CCCN(C3)C(=O)CCSSCCNC(=O)[C@H](Cc3cccc4ccccc34)NC2=O)cc1 [X-Nip-Dap-1-NaI + Acid 117]" metric="fraction of fluorescent probe displaced" result=0.069
compound="CCCOc1ccc(/C=C/C(=O)O)cc1 [Acid 118]" metric="fraction of fluorescent probe displaced" result=0.028
compound="O=C(/C=C/c1cccc(Cl)c1)NC[C@@H]1NC(=O)[C@H]2CCCN(C2)C(=O)CCSSCCNC(=O)[C@H](Cc2c[nH]c3ccccc23)NC1=O [X-Nip-Dap-Trp + Acid 121]" metric="fraction of fluorescent probe displaced" result=0.468
compound="Cn1cc(C[C@@H]2NC(=O)[C@H](CNC(=O)c3cnc4ccccc4n3)NC(=O)[C@H]3CCCN(C3)C(=O)CCSSCCNC2=O)c2ccccc21 [X-Nip-Dap-Me-Trp + Acid 130]" metric="fraction of fluorescent probe displaced" result=-0.00464
compound="O=C(/C=C/c1ccc(Cl)c(Cl)c1)NC[C@@H]1NC(=O)[C@H]2CCCN(C2)C(=O)CCSSCCNC(=O)[C@H](Cc2ccc3ccccc3c2)NC1=O [X-Nip-Dap-2-Nal + Acid 119]" metric="fraction of fluorescent probe displaced" result=0.020

GET /values?readout=fraction of fluorescent probe displaced&system=MDM2 (Homo sapiens)&item= O=C(NC[C@@H]1NC(=O)[C@H]2CCCN(C2)C(=O)CCSSCCNC(=O)[C@H](Cc2cccc3ccccc23)NC1=O)c1cnc2ccccc2n1 [X-Nip-Dap-1-NaI + Acid 130]
0.020

Hello, the source for this data is paper PMC9250534, in case you need it.
